# Tgt: PqsR (Pseudomonas aeruginosa, UniProt Q9I4X0)
# Sequence (Q9I4X0 whole entry): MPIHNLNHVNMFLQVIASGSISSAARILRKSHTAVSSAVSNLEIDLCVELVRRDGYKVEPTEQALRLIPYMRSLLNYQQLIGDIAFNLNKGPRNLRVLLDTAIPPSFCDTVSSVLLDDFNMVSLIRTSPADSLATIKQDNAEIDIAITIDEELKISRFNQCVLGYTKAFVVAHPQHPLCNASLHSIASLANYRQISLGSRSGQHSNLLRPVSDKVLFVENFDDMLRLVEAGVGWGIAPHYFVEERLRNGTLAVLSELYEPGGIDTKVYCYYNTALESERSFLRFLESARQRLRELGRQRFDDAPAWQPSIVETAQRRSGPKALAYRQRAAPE
# Assay notes: E. coli based β-galactosidase reporter gene assay (PqsR inverse agonistic activity)
# Assay type: cell-based
# Set-up: expressed in transfected cells; host or cells: Escherichia coli DH5α
# Method: Inhibition of pqsR-dependent gene expression of test compounds was determined in an E. coli based β-galactosidase reporter gene assay.[19] […] Antagonistic effects of compounds were evaluated in the presence of/in competition to 50 nM PQS. […] Finally, 995 μL of culture was added to each well and the p-galactosidase activity was determined by ortho-nitrophenyl-p-galactoside conversion in permeabilized cells after a 2.5 h incubation period (37° C., 180 rpm). […]
pIC50: −log10 of the molar value.
Recorded pIC50 by entry

Some molecules with recorded pIC50:
molecule="FC(F)(F)c1cc(NCc2cn(-c3ccc(OC4COC4)c(Cl)c3)nn2)ccn1 [Compound 152]" result="≥ 7.30"
molecule="COc1ncc(-c2ccc(CNc3ccnc(C(F)(F)F)c3)nc2)cc1Cl [Compound 101]" result="6.60 to 7.29"
molecule="O=C(c1ccccc1)c1ccc(-n2cc(CSc3ccnc(C(F)(F)F)c3)nn2)cc1 [Compound 057]" result="6.60 to 7.29"
molecule="FC(F)(F)c1cc(NCc2nc3ccc(Oc4ccccc4)cc3o2)ccn1 [Compound 134]" result="6.00 to 6.60"
molecule="CC(C)Oc1ccc(-c2ncc(CNc3ccnc(C(F)(F)F)c3)cn2)cc1 [Compound 106]" result="6.60 to 7.29"

Data request: Return pIC50 measured with PqsR (Pseudomonas aeruginosa, UniProt Q9I4X0) given this molecule: FC(F)(F)c1cncc(NCc2cn(-c3ccc(Oc4ccccc4)cc3)nn2)c1 [Compound 021]
Data returned: ≥ 7.30

Data request: Request: pIC50, test system PqsR (Pseudomonas aeruginosa, UniProt Q9I4X0), entry FC(F)(F)c1cc(NCc2cn(-c3ccc(-n4ncc5ncccc54)cc3)nn2)ccn1 [Compound 149]
Data returned: ≥ 7.30
